- System: Proteus mirabilis
- ASSAY OVERVIEW: Minimum inhibitory concentration against Proteus mirabilis (CECT170)
- Assay type: functional
Property: MIC90; scope: individual compounds
PARAMETER MEASURED: MIC90 (µg/mL)

INSERT INTO results (mol_smiles, measured_result) VALUES
  ('COc1cc2ccc(=O)oc2c(O[C@@H]2O[C@H](CO)[C@@H](O)[C@H](O)[C@H]2O)c1O', 1450),
  ('O=c1c(O)c(-c2ccc(O)cc2O)oc2cc(O)cc(O)c12', 120),
  ('COc1ccc([C@@H]2CC(=O)c3c(O)cc(O[C@@H]4O[C@H](CO)[C@@H](O)[C@H](O)[C@H]4O[C@@H]4O[C@@H](C)[C@H](O)[C@@H](O)[C@H]4O)cc3O2)cc1O', 300),
  ('CC(=O)Nc1cc(C)cc(/N=N/c2cc([N+](=O)[O-])cc([N+](=O)[O-])c2O)c1O', 130),
  ('O=C(N[C@H](CO)[C@H](O)c1ccc([N+](=O)[O-])cc1)C(Cl)Cl', 100),
  ('O=C(O)c1cccnc1Nc1cccc(C(F)(F)F)c1', 1800);
